Origin of the recorded values: the supplement of paper PMC9732359

# TEST: protein stability index of a GFP-peptide fusion (yeast GPS) (PSI 1-4); higher = more stable; sorted into four equal gates, so the index is relative within each strain
# RUN_CONDITIONS: ubr1∆
# protein stability index per entry
Reply with the value as a number alone.

Solved entries:
| POLYMER_SEQUENCE | protein stability index |
| --- | --- |
| YSMISLQNCCIIDVGTH [ARP9] | 1.33 |
| VANYSAMANAPGNNIPY [GAL11] | 2.76 |
| PFGAKSTKSNKTRNPLT [RPL8A] | 2.8 |
| TKEVESNIITKSLVQYI [DIS3] | 2.87 |
| KLNTLSEILSFDPVYTT [YML103C/NUP188] | 2.77 |

Prompt line: For the sequence TLKLQDTRITPSKVSKI [PRE6] , give its reported protein stability index.
Response line: 2.01

Prompt line: For the sequence EQTEGEPKKKRGFLGLF [SRP68] , give its reported protein stability index.
Response line: 2.76

Prompt line: For the sequence IKYEFNGIPLKSKERSS [YMR129W/POM152] , give its reported protein stability index.
Response line: 2.98

Prompt line: For the sequence PLFFVDLKLLFNTEAEQ [RGR1] , give its reported protein stability index.
Response line: 3.14

Prompt line: For the sequence VNSIALFVGTDRQLHEI [RPN14] , give its reported protein stability index.
Response line: 2.67

Prompt line: For the sequence EVFQLRIFVKEILEKCA [GAL11] , give its reported protein stability index.
Response line: 2.12

###

# TEST: protein stability index of a GFP-peptide fusion (yeast GPS) (PSI 1-4); higher = more stable; sorted into four equal gates, so the index is relative within each strain
# RUN_CONDITIONS: ubr1∆
PARAMETER_MEASURED: protein stability index

Solved entries:
| POLYMER_SEQUENCE | VAL |
| --- | --- |
| NNDFKLSIDKVLKKPNR [RET1] | 2.94 |
| DLSADKPTSPFIDSICK [SRB8] | 1.93 |

Moving on to another sequence below.
Prompt line: For the sequence PTLPTNHNKTKLLKSLK [PRP8] , give its reported protein stability index.
Response line: 2.41

###

# TEST: protein stability index of a GFP-peptide fusion (yeast GPS) (PSI 1-4); higher = more stable; sorted into four equal gates, so the index is relative within each strain
# RUN_CONDITIONS: ubr1∆
PARAMETER_MEASURED: protein stability index
Reply with the value as a number alone.

| POLYMER_SEQUENCE | VAL |
| --- | --- |
| KLKQQSSTDIPSYTHVL [RRI1] | 2.49 |
| QQQQQQNGQQPPTTSNL [YML103C/NUP188] | 2.66 |
| VPKEGLFYFDSSFRPCP [BRR2] | 3.14 |
| SFALPFEEDEKNSDVWF [RPN8] | 3.26 |
| SLDRVAWRTLVGVSHTN [CYT1] | 1.25 |
| ERDCVIAYGASQLLLER [RET1] | 1.11 |

Prompt line: For the sequence KLKGLMKLNILDERFAS [IRR1] , give its reported protein stability index.
Response line: 2.35

###

# TEST: protein stability index of a GFP-peptide fusion (yeast GPS) (PSI 1-4); higher = more stable; sorted into four equal gates, so the index is relative within each strain
# RUN_CONDITIONS: doa10∆
# protein stability index per entry
Reply with the value as a number alone.

| POLYMER_SEQUENCE | protein stability index |
| --- | --- |
| LLEPPAKELQGIDPDET [RPO31] | 3.19 |
| SKLEGTINKAVQVKVLG [ESC2] | 1.57 |
| RAINKVLCTRLRLSNFF [SIR2] | 1.72 |
| IDHINEESWEKVVEFAI [SCL1] | 2.78 |
| VLAGDTRNITDYSINSR [PRE7] | 2.93 |

Prompt line: For the sequence ESLYDLIEFQPSQGVHY [MED6] , give its reported protein stability index.
Response line: 2.84

Prompt line: For the sequence ALKKSRSKGKQNRPYNH [RPC17] , give its reported protein stability index.
Response line: 3.04

Prompt line: For the sequence WTDPNLKSSLADVLSIL [RPN1] , give its reported protein stability index.
Response line: 2.94

Prompt line: For the sequence LYDNFVSKFYDKINQLS [RPN9] , give its reported protein stability index.
Response line: 2.78

Prompt line: For the sequence ATIIGIISTAIADSTHV [ECM29] , give its reported protein stability index.
Response line: 1.74

Prompt line: For the sequence SEFLNVPFESLQGVTYP [YIL149C/MLP2] , give its reported protein stability index.
Response line: 2.94

Prompt line: For the sequence SAKTRSHNWAAKAKRRH [RPL37B] , give its reported protein stability index.
Response line: 3.42

Prompt line: For the sequence EEISFSLSEGCDILVAT [PRP28] , give its reported protein stability index.
Response line: 2.62

Prompt line: For the sequence DSHKRIPDMSKNVELGW [SNU114] , give its reported protein stability index.
Response line: 3.06
